- Tested on: Plasmodium falciparum
- Test protocol: Antimalarial activity against chloroquine, mefloquine, pyrimethamine and atovaquone-resistant Plasmodium falciparum TM90-C2B infected in human A+ erythrocytes after 72 hrs by SYBR Green I assay
- Format: functional, organism-based
The compounds listed here are annotated with their EC50.
Your answer is read as nM, so omit the unit and give the number.

Answered examples (5):
1) COc1cccc2c(=O)c(-c3ccccc3)c(C)[nH]c12    1660
2) COc1cc2[nH]c(C)c(Cc3ccccc3)c(=O)c2cc1Cl    68.6
3) Cc1[nH]c2ccc(F)cc2c(=O)c1Br    125
4) COc1ccc2c(=O)c(-c3ccccc3)c(C)[nH]c2c1    269
5) CCCCCCCc1c(C)[nH]c2cc(OC)c(Cl)cc2c1=O    2.95

Please look at this compound and report its EC50: COc1cc2[nH]c(C)c(C(C)C)c(=O)c2cc1Cl
194

Please look at this compound and report its EC50: Cc1[nH]c2cc(Cl)c(Cl)cc2c(=O)c1-c1ccccc1
350

Please look at this compound and report its EC50: CCCCCCCCCc1c(C)[nH]c2cc(OC)c(Cl)cc2c1=O
1.59

Please look at this compound and report its EC50: CCc1c(C)[nH]c2cc(OC)c(F)cc2c1=O
161

Please look at this compound and report its EC50: COc1cc2[nH]c(C)c(-c3ccccc3)c(=O)c2cc1Br
25

Please look at this compound and report its EC50: CCc1c(C)[nH]c2cc(OC)c(Cl)cc2c1=O
27.6

Please look at this compound and report its EC50: COc1ccc2c(=O)c(Cc3ccccc3)c(C)n(C)c2c1
7840

Please look at this compound and report its EC50: Cc1[nH]c2ccc(Cl)cc2c(=O)c1-c1ccccc1
777

Please look at this compound and report its EC50: Cc1[nH]c2ccc(Br)cc2c(=O)c1Br
339

Please look at this compound and report its EC50: COc1ccc2[nH]c(C)c(Cc3ccccc3)c(=O)c2c1
23700

Please look at this compound and report its EC50: COc1cc2[nH]c(C)c(CC(C)C)c(=O)c2cc1Cl
63.3

Please look at this compound and report its EC50: Cc1[nH]c2cccc(Cl)c2c(=O)c1-c1ccccc1
4740
